- testDescription: Percent of unbound ligand in Beagle dog plasma
- Assay type: ADME, cell-free, Canis lupus familiaris
quantityKind: fraction unbound

N#C[C@@H]1CC[C@H](C#N)N1C(=O)CNC1(CO)CCCC1 : 1

====

// reported Vd for each item listed
- testDescription: Volume of distribution in Sprague-Dawley rat
- Format: ADME, organism-based
- assayContext: in vivo, read-out: Vdss
quantityKind: Vd

COCC1(NCC(=O)N2[C@H](C#N)CC[C@@H]2C#N)CCCC1 : 1.6 L/kg
N#C[C@@H]1CC[C@H](C#N)N1C(=O)CNC12CC3CC(CC(C3)C1)C2 : 3.1 L/kg
N#C[C@@H]1CC[C@H](C#N)N1C(=O)CNC12CC3CC(CC(O)(C3)C1)C2 : 2.7 L/kg
N#C[C@@H]1CC[C@H](C#N)N1C(=O)CNC1(CO)CCCC1 : 1.4 L/kg

====

- testDescription: Half life in Beagle dog at 1 mg/kg, po
- Type: ADME, organism-based, Canis lupus familiaris
- Set-up: dose 1 mg/kg, route oral
- assayContext: in vivo
quantityKind: half-life

N#C[C@@H]1CC[C@H](C#N)N1C(=O)CNC1(CO)CCCC1 : 5.3 h

====

- testedTarget: Dipeptidyl peptidase 4 (Homo sapiens, UniProt P27487)
- Sequence (P27487 whole entry): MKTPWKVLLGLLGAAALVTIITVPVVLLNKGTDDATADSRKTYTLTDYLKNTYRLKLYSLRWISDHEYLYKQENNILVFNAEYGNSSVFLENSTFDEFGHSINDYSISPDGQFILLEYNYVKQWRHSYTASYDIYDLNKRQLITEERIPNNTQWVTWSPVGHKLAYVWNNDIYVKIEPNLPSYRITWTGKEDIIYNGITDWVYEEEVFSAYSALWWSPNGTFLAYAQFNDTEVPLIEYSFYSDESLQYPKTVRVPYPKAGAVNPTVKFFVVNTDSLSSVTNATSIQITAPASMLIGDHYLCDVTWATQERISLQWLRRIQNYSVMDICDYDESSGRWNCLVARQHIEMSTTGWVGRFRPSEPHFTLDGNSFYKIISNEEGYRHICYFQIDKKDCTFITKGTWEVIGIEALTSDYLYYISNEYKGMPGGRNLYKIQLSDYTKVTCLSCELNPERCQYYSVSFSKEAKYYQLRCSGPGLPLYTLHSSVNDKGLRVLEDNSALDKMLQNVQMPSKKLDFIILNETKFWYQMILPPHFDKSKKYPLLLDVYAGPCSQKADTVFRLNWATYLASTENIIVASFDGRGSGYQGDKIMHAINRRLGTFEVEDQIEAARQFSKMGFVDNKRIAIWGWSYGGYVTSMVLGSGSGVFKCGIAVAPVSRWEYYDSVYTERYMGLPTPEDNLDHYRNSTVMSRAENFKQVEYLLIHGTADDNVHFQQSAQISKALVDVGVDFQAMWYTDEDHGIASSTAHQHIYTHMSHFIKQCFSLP
- testDescription: Inhibition of human recombinant DPP4
quantityKind: IC50

N#C[C@@H]1CC[C@H](C#N)N1C(=O)CNC1(Cc2ccccc2)CCCCC1 : > 3 µM
C[C@@H]1CC(C)(NCC(=O)N2[C@H](C#N)CC[C@@H]2C#N)C[C@@H]1C (stereo not given in full) : > 3 µM
N#C[C@@H]1C[C@H](O)CN1C(=O)CNC12CC3CC(CC(C3)C1)C2 : > 30 µM
CCC1(NCC(=O)N2[C@H](C#N)CC[C@@H]2C#N)CCCCC1 : > 3 µM
N#C[C@@H]1CC[C@H](c2ccccc2)N1C(=O)CNC1(CO)CCCC1 : > 30 µM
CC(C)(C)C(C)(C)NCC(=O)N1[C@H](C#N)CC[C@@H]1C#N : > 3 µM
CCC(C)(C)C1CCC(C)(NCC(=O)N2[C@H](C#N)CC[C@@H]2C#N)C1 (stereo not given in full) : > 3 µM
CCCCOCC1(NCC(=O)N2[C@H](C#N)CC[C@@H]2C#N)CCCC1 : 0.091 µM
CCC(C)(C)NCC(=O)N1[C@H](C#N)CC[C@@H]1C#N : > 3 µM
N#C[C@@H]1CC[C@H](C#N)N1C(=O)CNC12CC3CC(CC(O)(C3)C1)C2 : 0.074 µM

====

- testDescription: Bioavailability in cynomolgus monkey
- Format: ADME, organism-based, Macaca fascicularis
- assayContext: in vivo
quantityKind: bioavailability (%)

N#C[C@@H]1CC[C@H](C#N)N1C(=O)CNC1(CO)CCCC1 : 42

====

- testDescription: Tmax in Beagle dog
- Type: ADME, organism-based, Canis lupus familiaris
- assayContext: in vivo
quantityKind: Tmax

N#C[C@@H]1CC[C@H](C#N)N1C(=O)CNC1(CO)CCCC1 : ≤ 1 h

====

- testedTarget: Dipeptidyl peptidase 4 (Homo sapiens)
- testDescription: Inhibition of human recombinant DPP4
pIC50: −log10 of the molar value.
// reported pIC50 for each item listed
quantityKind: pIC50

CCOCC1(NCC(=O)N2[C@H](C#N)CC[C@@H]2C#N)CCCC1 : 7.19
CC1(NCC(=O)N2[C@H](C#N)CC[C@@H]2C#N)CCSC1 (stereo not given in full) : < 5.52
C[C@H]1CC[C@@H](C#N)N1C(=O)CNC12CC3CC(CC(C3)C1)C2 : < 4.52
CCC(C)(CC)NCC(=O)N1[C@H](C#N)CC[C@@H]1C#N : < 5.52
CNC(=O)C1(NCC(=O)N2[C@H](C#N)CC[C@@H]2C#N)CCCC1 : < 5.52
N#C[C@@H]1CC[C@H](C#N)N1C(=O)CNC12CC3(F)CC(F)(CC(F)(C3)C1)C2 : < 5.52
COCC1(NCC(=O)N2[C@H](C#N)CC[C@@H]2C#N)CCCC1 : 7.08
C#CC1(NCC(=O)N2[C@H](C#N)CC[C@@H]2C#N)CCCCC1 : < 5.52
N#C[C@@H]1CC[C@H](C#N)N1C(=O)CNC1(CCO)CCCC1 : < 5.52
N#C[C@@H]1CC[C@H](C#N)N1C(=O)CNC12CC3CC(CC1C3)C2 : 7.14
CC1(C)CCCC1(C)NCC(=O)N1[C@H](C#N)CC[C@@H]1C#N (stereo not given in full) : < 5.52
N#C[C@@H]1CC[C@H](C#N)N1C(=O)CNC1(CCCO)CCCCC1 : < 5.52
CC1(NCC(=O)N2[C@H](C#N)CC[C@@H]2C#N)COC(C)(C)OC1 : < 5.52
COC(=O)C1(NCC(=O)N2[C@H](C#N)CC[C@@H]2C#N)CCCC1 : < 5.52
CC(C)C(C)(C)NCC(=O)N1[C@H](C#N)CC[C@@H]1C#N : < 5.52

src = ChEMBL document CHEMBL1147795
